Test system: β-catenin-TCF-mediated reporter transcription activity in Colo 205 cells
Test: Colo 205 reporter assay (TCF/LEF luciferase)
Assay type: cell-based
Details: Colo 205 TCF/LEF luciferase reporter, five hours after addition of compound; read-out: TCF reporter Colo205 IC50
ASSAY ENDPOINT: IC50

1) Cc1nc(N[C@H]2C[C@@H](Cn3nccc3C(F)(F)F)C2)nc2c1NC(=O)[C@H](CO)N2C    1 to 5 µM
2) COC1(C2C(=O)Nc3c(C)nc(NCc4cnn(Cc5cc(C(F)(F)F)nn5C)c4)nc3N2C)CC1 (stereo not shown)    0.3 to 1 µM
3) COCC1(C)C(=O)Nc2c(C)nc(NCc3cnn(Cc4cc(C(F)(F)F)nn4C)c3)nc2N1C (stereo not shown)    0.3 to 1 µM
4) Cc1nc(NCc2cnn(Cc3cccnc3C(F)(F)F)c2)nc2c1NC(=O)[C@H](C)N2C    < 0.3 µM
5) CC[C@H]1C(=O)Nc2c(C)nc(NCc3cnn(Cc4ccc(OC(F)F)nc4)c3)nc2N1C    < 0.3 µM
6) Cc1nc(NC2CC(C)(OCc3cc(F)c(F)c(F)c3)C2)nc2c1NC(=O)[C@H](C)N2C (stereo in doubt)    ≥ 5 µM
7) Cc1nc(NCc2cnn(Cc3ccc(C(F)(F)F)nc3)c2)nc2c1NC(=O)C1(CCOC1)N2C (stereo not shown) [Compound 662]    0.3 to 1 µM
